Data origin, for the record: patent US4732970A

Entries annotated with measured T/C × 100 (%)
# Test system: lymphocytic leukemia P388
# assayProcedure: Lymphocytic Leukemia P388 Test
# Assay type: in vivo, BDF1 mice
# measurementParameters: dose 0.75 mg/kg intraperitoneally on days 1, 5 and 9; ratio of survival time treated/control
Number only, in %; omit the unit.

1) Br.Br.CC(C)C[C@H](NC(=O)[C@H](C)NC(=O)[C@@H](N)CC(C)C)C(=O)NCCNc1ccc(NCCNC(=O)[C@H](CC(C)C)NC(=O)[C@H](C)NC(=O)[C@@H](N)CC(C)C)c2c1C(=O)c1c(O)ccc(O)c1C2=O [Example 52] :: 205
2) Br.Br.C[C@H](NCCNc1ccc(NCCN[C@@H](C)C(=O)N[C@@H](CCCNC(=N)N)C(=O)OC(C)(C)C)c2c1C(=O)c1c(O)ccc(O)c1C2=O)C(=O)N[C@@H](CCCNC(=N)N)C(=O)OC(C)(C)C [Example 87] :: 170
3) CC(C)(C)OC(=O)N[C@@H](CCC(=O)OCc1ccccc1)C(=O)NCCNc1ccc(NCCNC(=O)[C@H](CCC(=O)OCc2ccccc2)NC(=O)OC(C)(C)C)c2c1C(=O)c1c(O)ccc(O)c1C2=O (relative stereo) [Example 43] :: 150
4) Br.Br.Br.Br.C[C@H](NC(=O)[C@H](CO)NC(=O)[C@@H](N)CCCNC(=N)N)C(=O)NCCNc1ccc(NCCNC(=O)[C@H](C)NC(=O)[C@H](CO)NC(=O)[C@@H](N)CCCNC(=N)N)c2c1C(=O)c1c(O)ccc(O)c1C2=O [Example 94] :: 195
5) N[C@@H](CCC(=O)OCc1ccccc1)C(=O)NCCNc1ccc(NCCNC(=O)[C@@H](N)CCC(=O)OCc2ccccc2)c2c1C(=O)c1c(O)ccc(O)c1C2=O.O=C(O)C(F)(F)F.O=C(O)C(F)(F)F (relative stereo) [Example 44] :: 164
6) O=C(CNC(=O)OCc1ccccc1)N[C@@H](Cc1ccccc1)C(=O)NCCNc1ccc(NCCNC(=O)[C@H](Cc2ccccc2)NC(=O)CNC(=O)OCc2ccccc2)c2c1C(=O)c1c(O)ccc(O)c1C2=O [Example 53] :: 168

Suppose we examine the compound Cl.Cl.N[C@@H](Cc1ccc(O)cc1)C(=O)NCCNc1ccc(NCCNC(=O)[C@@H](N)Cc2ccc(O)cc2)c2c1C(=O)c1c(O)ccc(O)c1C2=O (relative stereo) [Example 37] ; what T/C × 100 (%) value has been reported? 227

Suppose we examine the compound Br.Br.CC(C)C[C@H](NC(=O)[C@@H]1CCCN1C(=O)CN)C(=O)NCC(=O)N1CCC[C@H]1C(=O)NCCNc1ccc(NCCNC(=O)[C@@H]2CCCN2C(=O)CNC(=O)[C@H](CC(C)C)NC(=O)[C@@H]2CCCN2C(=O)CN)c2c1C(=O)c1c(O)ccc(O)c1C2=O [Example 62] ; what T/C × 100 (%) value has been reported? 190

Suppose we examine the compound CC(C)C[C@H](NC(=O)[C@H](C)N)C(=O)NCCNc1ccc(NCCNC(=O)[C@H](CC(C)C)NC(=O)[C@H](C)N)c2c1C(=O)c1c(O)ccc(O)c1C2=O.O=C(O)C(F)(F)F.O=C(O)C(F)(F)F [Example 66] ; what T/C × 100 (%) value has been reported? 173
